Molecular target: μ-opioid receptors (Homo sapiens (Human))
Assay: μ-opioid receptor [35S]GTPγS functional assay, HEK-293 cells
Assay type: biochemical
Conditions: μ GTP, relative to DAMGO, read-out: Activity Response μ Emax (%)
Protocol: [^35S]GTPγS functional assays were conducted using freshly thawed μ-receptor membranes prepared from a cell line expressing recombinant μ opioid receptor in a HEK-293, CHO or U-2 OS cell background or purchased from a commercial source (Perkin Elmer, Shelton, Conn.; or DiscovRx, Fremont, Calif.). […] BetaScint scintillation cocktail (Perkin Elmer, Shelton, Conn.) was added (50 μl/well) and plates were counted using a Packard Top-Count for 1 min/well. […]
Please assign 0 whenever Emax is at or above 60%, and 1 whenever it is below.

COc1ccc2c(c1)[C@]13CCN(CC4CC4)[C@H](C2)[C@]1(O)C[C@H](CC(=O)N[C@@H](CC(C)C)C(=O)O)C(=O)C3 : 1
CC(C)C[C@H](NC(=O)C[C@H]1C[C@@]2(O)[C@H]3Cc4ccc(O)cc4[C@@]2(CCN3CC2CC2)CC1=O)C(=O)O : 1
O=C1C[C@]23CCN(CC4CC4)[C@H](Cc4ccc(O)cc42)[C@]3(O)C[C@@H]1CCO : 1
CN1CC[C@]23CC(=O)[C@@H](CC(=O)NCC4CC4)C[C@@]2(O)[C@H]1Cc1ccc(O)cc13 : 1
COc1ccc2c(c1)[C@]13CCN(CC4CC4)[C@H](C2)[C@]1(O)C[C@H](CC(=O)N1CCC[C@H]1C(=O)O)C(=O)C3 : 1
CN1CC[C@]23CC(=O)[C@@H](CC(=O)NCc4ccccc4)C[C@@]2(O)[C@H]1Cc1ccc(O)cc13 : 0

----------
Biological target: μ-opioid receptors (Homo sapiens (Human), UniProt P35372)
Assay: μ-opioid receptor radioligand dose-displacement binding assay ([3H]-diprenorphine)
Details: mean ± SEM, read-out: Binding Affinity Opioid Receptor Ki (nM) [mean ± SEM] μ
experimental-endpoint: Ki (nM)

COc1ccc2c(c1)[C@]13CCN(CC4CC4)[C@H](C2)[C@]1(O)C[C@H](CCOCc1ccccc1)C(=O)C3 : 223
COCC[C@H]1C[C@@]2(O)[C@H]3Cc4ccc(OC)cc4[C@@]2(CCN3CC2CC2)CC1=O : 1960
COc1ccc2c(c1)[C@]13CCN(CC4CC4)[C@H](C2)[C@]1(O)C[C@H](CCO)C(=O)C3 : 591
COc1ccc2c(c1)[C@]13CCN(CC4CC4)[C@H](C2)[C@@H]1C[C@@H](C(C)C)C(=O)C3 : 476
CC(C)[C@H]1C[C@H]2[C@H]3Cc4ccc(O)cc4[C@@]2(CCN3CC2CC2)CC1=O : 7.42
O=C(O)C[C@H]1C[C@@]2(O)[C@H]3Cc4ccc(O)cc4[C@@]2(CCN3CC2CC2)CC1=O : 6.18
CC(C)[C@@H]1C[C@H]2[C@H]3Cc4ccc(O)cc4[C@@]2(CCN3CC2CC2)CC1=O : 1.98

----------
Biological target: recombinant human kappa opioid receptor (κ) (Homo sapiens (Human), UniProt P41145)
Assay: κ-opioid receptor radioligand dose displacement binding assay ([3H]-U69,593)
Details: mean ± SEM, read-out: Binding Affinity Opioid Receptor Ki (nM) [mean ± SEM] κ
experimental-endpoint: Ki (nM)

O=C1C[C@]23CCN(CC4CC4)[C@H](Cc4ccc(O)cc42)[C@]3(O)C[C@@H]1CC(=O)N1CCC[C@H]1C(=O)O : 128
CC(C)[C@H]1C[C@H]2[C@H]3Cc4ccc(O)cc4[C@@]2(CCN3CC2CC2)CC1=O : 0.33
CCOC(=O)C[C@H]1C[C@@]2(O)[C@H]3Cc4ccc(OC)cc4[C@@]2(CCN3CC2CC2)CC1=O : 408
